Experiment: Peptide stability in mouse plasma (UPLC)
Type: in vitro ADME
Conditions: mouse, pooled mouse K2EDTA plasma; 5 h, plasma; read-out: intact peptide remaining in plasma after 5 h of incubation
observation.type: remaining at 5 h, 315 µmol/L

Quick check: remaining at 5 h, 315 µmol/L of CC(C)C[C@H](NC(=O)[C@H](Cc1ccccc1)NC(=O)CNC(=O)CNC(=O)[C@H](Cc1ccc(O)cc1)NC(=O)C(C)(C)C)C(=O)O ?
> 90%
